Taken from patent US20210388087A1.

molecular target: T1, Human CD137 ECD (human); experiment: SPR (Biacore), affinity of single-mutation variant against parental H183/L072
T1 construct: also called human CD137 extracellular domain; hCD137
T1 sequence (chain, as listed by the source limits assumed): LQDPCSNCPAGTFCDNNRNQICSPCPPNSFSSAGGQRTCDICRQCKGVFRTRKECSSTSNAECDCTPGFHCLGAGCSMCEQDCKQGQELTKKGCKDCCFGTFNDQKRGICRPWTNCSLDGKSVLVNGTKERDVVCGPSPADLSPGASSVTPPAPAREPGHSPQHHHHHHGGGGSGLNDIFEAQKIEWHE
Give fold change of affinity for CD137 for every item shown.
One number for each entry, in fold.

Please review the entries below; each comes with its answer.
Dual-Fab H183/L072 variant with single light chain mutation V51Y (Kabat) (antibody, name in Kabat numbering, V domains shown, expressed as an antibody in Expi293 and purified on Protein A; also called dBBDu183H / dBBDu072L V51Y) VH: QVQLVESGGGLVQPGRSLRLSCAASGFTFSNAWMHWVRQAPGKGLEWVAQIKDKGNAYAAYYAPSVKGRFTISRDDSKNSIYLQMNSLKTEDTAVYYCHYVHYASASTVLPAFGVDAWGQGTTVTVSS VL: DIVMTQSPLSLPVTPGEPASISCQASQELVHMNRNTYLHWYQQKPGQAPRLLIYKYSNRFPGVPDRFSGSGSGTDFTLKISRVEAEDVGVYYCAQGTSVPFTFGQGTKLEIK : 0.2
Dual-Fab H183/L072 variant with single light chain mutation P56Y (Kabat) (antibody, name in Kabat numbering, V domains shown, expressed as an antibody in Expi293 and purified on Protein A; also called dBBDu183H / dBBDu072L P56Y) VH: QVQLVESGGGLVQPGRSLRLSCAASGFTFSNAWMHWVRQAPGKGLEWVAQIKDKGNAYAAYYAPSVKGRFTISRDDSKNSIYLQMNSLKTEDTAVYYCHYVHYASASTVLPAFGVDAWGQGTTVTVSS VL: DIVMTQSPLSLPVTPGEPASISCQASQELVHMNRNTYLHWYQQKPGQAPRLLIYKVSNRFYGVPDRFSGSGSGTDFTLKISRVEAEDVGVYYCAQGTSVPFTFGQGTKLEIK : 0

Enquiry: Return the recorded fold change of affinity for CD137 value; entry: Dual-Fab H183/L072 variant with single light chain mutation F55Y (Kabat) (antibody, name in Kabat numbering, V domains shown, expressed as an antibody in Expi293 and purified on Protein A; also called dBBDu183H / dBBDu072L F55Y) VH: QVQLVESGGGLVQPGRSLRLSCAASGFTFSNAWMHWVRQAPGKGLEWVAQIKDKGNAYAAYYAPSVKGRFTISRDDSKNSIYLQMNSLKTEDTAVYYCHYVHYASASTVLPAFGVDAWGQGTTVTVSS VL: DIVMTQSPLSLPVTPGEPASISCQASQELVHMNRNTYLHWYQQKPGQAPRLLIYKVSNRYPGVPDRFSGSGSGTDFTLKISRVEAEDVGVYYCAQGTSVPFTFGQGTKLEIK
Return: 0
